Test system: Leptosphaeria nodorum
Assay: Comparative Example 2: activity against wheat leaf spots caused by Leptosphaeria nodorum (microtiter plate)
Format: cell-based
Details: relative to compound-free control (100%), 405 nm, 7 days after inoculation
Experimental: The active compounds were formulated separately as a stock solution having a concentration of 10000 ppm in dimethyl sulfoxide. […] Using an absorption photometer, the MTPs were measured at 405 nm 7 days after the inoculation. The measured parameters were compared to the growth of the active compound-free control variant (100%) and the fungus-free blank value to determine the relative growth in % of the pathogens in the respective active compounds.
Recorded Growth (%) at 125 pm for the following compounds
Numeric only. Scale: %

QUERY: Fill in the blank: the reported Growth (%) at 125 pm of CC1(Cc2ccc(F)cc2)N=C(c2ccc(Cl)nc2)c2ccccc2O1 (stereo not shown) [reference compound] is ____.
RESULT: 43

Continuing:
QUERY: Fill in the blank: the reported Growth (%) at 125 pm of Cc1cc(C2=NC(C)(Cc3ccc(F)cc3)Oc3ccccc32)cnc1C(F)F (stereo not shown) [Ex-58] is ____.
RESULT: 8

QUERY: Fill in the blank: the reported Growth (%) at 125 pm of Cc1cc(C2=NC(C)(c3ccc(Cl)cc3)Oc3ccccc32)cnc1C(F)F (stereo not shown) [Ex-51] is ____.
RESULT: 15

QUERY: Fill in the blank: the reported Growth (%) at 125 pm of CC1(c2ccc(Cl)cc2)N=C(c2ccc(Cl)nc2)c2ccccc2O1 (stereo not shown) [reference compound] is ____.
RESULT: 47

The reported numbers originate from patent US20240294544A1.
